For each record, write down the corresponding relative cell viability.
# System: HL-1
# Measurement notes: relative cell viability (CellTiter-Glo) vs DMSO control (% of DMSO control); higher = more viable cells
# Conditions used: oxygen condition: normoxia 72 h; 40 nM

Need relative cell viability of C[N+]1(C)CCC(=C(c2ccccc2)c2ccccc2)CC1 [Diphemanil methylsulfate] , thanks.
102

Need relative cell viability of COc1cc(Nc2c(C#N)cnc3cc(OCCCN4CCN(C)CC4)c(OC)cc23)c(Cl)cc1Cl , thanks.
110

Need relative cell viability of CNC[C@H](O)c1ccc(O)c(O)c1 [Epinephrine bitartrate] , thanks.
101

Need relative cell viability of C[C@]12CC[C@H](O)CC1=CC[C@@H]1[C@@H]2CC[C@]2(C)C(c3cccnc3)=CC[C@@H]12 , thanks.
61.2

Cited source: the supplement of paper PMC8371130
